Test system: ABL1 (human), P00519 [M351T]
Assay: KINOMEscan competition binding
Conditions: compound 10.0 µM
Kindly apply the following: MET if kinase still bound, per cent of control is less than 30%, NOT MET in every other case.

INSERT INTO assay_data (compound, label) VALUES
  ('CCCS(=O)(=O)Nc1ccc(F)c(C(=O)c2c[nH]c3ncc(-c4ccc(Cl)cc4)cc23)c1F', 'NOT MET'),
  ('Cc1ccc(C(=O)Nc2cccc(C(F)(F)F)c2)cc1Nc1cncc(C(N)=O)c1', 'MET'),
  ('COc1cc2ncnc(-n3nc(-c4ccccn4)nc3N)c2cc1OC', 'MET'),
  ('COc1cc(C)c(Sc2cnc(NC(=O)c3ccc(CNC(C)C(C)C)cc3)s2)cc1C(=O)N1CCN(C(C)=O)CC1 (stereo not drawn)', 'NOT MET'),
  ('OCCCNc1cc(-c2ccnc(Nc3cccc(Cl)c3)n2)ccn1', 'NOT MET'),
  ('O=C(NC1CC1)c1cccc(-c2ccc3c(NC(=O)C4CC4)n[nH]c3c2)c1', 'NOT MET'),
  ('N#C/C(=C1/Nc2ccccc2S1)c1ccnc(NCCc2cccnc2)n1', 'NOT MET'),
  ('CNC(=O)c1ccc(Nc2cc(Nc3ccccc3S(=O)(=O)C(C)C)c3cc[nH]c3n2)nc1', 'MET');
